# cAMP EC50 annotations
Biological target: human MC4R receptor (human, UniProt P32245 1-332)
Sequence (P32245 whole entry): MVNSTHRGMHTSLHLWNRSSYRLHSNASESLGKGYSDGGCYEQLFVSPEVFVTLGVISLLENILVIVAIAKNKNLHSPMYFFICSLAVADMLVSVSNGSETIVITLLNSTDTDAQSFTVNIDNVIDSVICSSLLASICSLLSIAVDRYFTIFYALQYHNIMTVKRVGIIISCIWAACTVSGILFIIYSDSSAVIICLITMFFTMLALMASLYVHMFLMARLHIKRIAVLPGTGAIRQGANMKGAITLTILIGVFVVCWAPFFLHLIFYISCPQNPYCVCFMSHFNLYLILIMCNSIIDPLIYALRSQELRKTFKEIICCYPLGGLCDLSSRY
Assay: cell-based or functional assay
Positions of bridges follow the written chain, without caps; N, C: chain ends. Non-standard residues stand in square brackets, D forms with d. 4Pal = N[C@@H](Cc1ccncc1)C(=O)O; Cit = NC(=O)NCCC[C@H](N)C(=O)O; Nle = CCCC[C@H](N)C(=O)O; Orn = NCCC[C@H](N)C(=O)O; Aib = CC(C)(N)C(=O)O
measuredMetric: cAMP EC50 (nM)

>  <binder>
Ac-RC[Aib][Orn][dF]RFC-NH2 (disulfide 2-8; SMILES CC(=O)N[C@@H](CCCNC(=N)N)C(=O)N[C@H]1CSSC[C@@H](C(N)=O)NC(=O)[C@H](Cc2ccccc2)NC(=O)[C@H](CCCNC(=N)N)NC(=O)[C@@H](Cc2ccccc2)NC(=O)[C@H](CCCN)NC(=O)C(C)(C)NC1=O) [CTX-1602]

>  <recordedResult>
73

$$$$
>  <binder>
Ac-R[Nle]CH[dF]RFC-NH2 (disulfide 3-8; SMILES CCCC[C@H](NC(=O)[C@H](CCCNC(=N)N)NC(C)=O)C(=O)N[C@H]1CSSC[C@@H](C(N)=O)NC(=O)[C@H](Cc2ccccc2)NC(=O)[C@H](CCCNC(=N)N)NC(=O)[C@@H](Cc2ccccc2)NC(=O)[C@H](Cc2c[nH]cn2)NC1=O) [CTX-1625]

>  <recordedResult>
38

$$$$
>  <binder>
Ac-CG[Cit][dF]RFC-NH2 (disulfide 1-7; SMILES CC(=O)N[C@H]1CSSC[C@@H](C(N)=O)NC(=O)[C@H](Cc2ccccc2)NC(=O)[C@H](CCCNC(=N)N)NC(=O)[C@@H](Cc2ccccc2)NC(=O)[C@H](CCCNC(N)=O)NC(=O)CNC1=O) [CTX-1639]

>  <recordedResult>
2730

$$$$
>  <binder>
Ac-RC[Aib][Cit][dF]RWC-NH2 (disulfide 2-8) [CTX-1289]

>  <recordedResult>
0.6

$$$$
>  <binder>
Ac-RC[Aib]R[dF][Cit]WC-NH2 (disulfide 2-8) [CTX-1270]

>  <recordedResult>
27

$$$$
>  <binder>
{CH2CO}-GH[dF]RWC-NH2 (thioether N-6; SMILES N=C(N)NCCC[C@@H]1NC(=O)[C@@H](Cc2ccccc2)NC(=O)[C@H](Cc2c[nH]cn2)NC(=O)CNC(=O)CSC[C@@H](C(N)=O)NC(=O)[C@H](Cc2c[nH]c3ccccc23)NC1=O) [CTX-1644]

>  <recordedResult>
2.3

$$$$
>  <binder>
Ac-R[Nle]C[4Pal][dF]RWC-NH2 (disulfide 3-8; SMILES CCCC[C@H](NC(=O)[C@H](CCCNC(=N)N)NC(C)=O)C(=O)N[C@H]1CSSC[C@@H](C(N)=O)NC(=O)[C@H](Cc2c[nH]c3ccccc23)NC(=O)[C@H](CCCNC(=N)N)NC(=O)[C@@H](Cc2ccccc2)NC(=O)[C@H](Cc2ccncc2)NC1=O) [CTX-1621]

>  <recordedResult>
2.9

$$$$
